Listing of entries alongside the reported viability, T/C.
Test system: 922993-354-T-J3-PDC complex spheroid viability;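 also: spheroids exposed to the agents for one week; 100% = DMSO vehicle control wells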
TEST NAME: Anticancer human tumor 922993-354-T-J3-PDC patient-derived endometrial carcinoma cell line growth inhibition [POLQ]
COND: second compound 3.16 µM; first compound 1 µM; hits give low values
Experimental: Multicellular complex tumor spheroid response to Polymerase (POL) inhibitors (novobiocin, ART-558, RP6685) in combination with a variety of drugs and investigational agents in selected tumor cell lines The POL inhibitors (novobiocin, ART-558, and RP6685) were evaluated both individually and in combination with standard of care and investigational anticancer small molecules within a complex spheroid model of solid tumors. . […]
Give just the numeric value; % need not be written.

Here's what some known entries look like.
INSERT INTO measurements (molecule, measurement_units, quantitative_result) VALUES
  ('CC1COCCN1c1cc(-c2ccnn2C)c2ccnc(-c3ccn[nH]3)c2n1 (stereo unspecified) + Cc1cccc(N(C)C(=O)C2C(O)CCN2c2nc(C)cc(C(F)(F)F)c2C#N)c1', '%', 10.6),
  ('COc1cccc(OCCCN)c1-c1cc(Nc2cnc(C#N)cn2)n[nH]1 + Nc1ccc(C#CCN(C(=O)Cc2ncc(C(F)(F)F)cc2C(F)(F)F)c2ccc(F)cc2)nn1', '%', 14.8);

viability, T/C reported for this molecule COc1cc(C2c3cc4c(cc3C(OC3OC5COC(C)OC5C(O)C3O)C3COC(=O)C23)OCO4)cc(OC)c1O (stereo unspecified) + COC1C(OC(N)=O)C(O)C(Oc2ccc3c(O)c(NC(=O)c4ccc(O)c(CC=C(C)C)c4)c(=O)oc3c2C)OC1(C)C : 88.6

viability, T/C reported for this molecule CC1COCCN1c1cc(C2(O)CC3CCC(C2)O3)c2cnn(-c3ccn[nH]3)c2n1 (stereo unspecified) + COC1C(OC(N)=O)C(O)C(Oc2ccc3c(O)c(NC(=O)c4ccc(O)c(CC=C(C)C)c4)c(=O)oc3c2C)OC1(C)C : 23.2

viability, T/C reported for this molecule CCc1c2c(nc3ccc(O)cc13)-c1cc3c(c(=O)n1C2)COC(=O)[C@]3(O)CC + Cc1cccc(N(C)C(=O)C2C(O)CCN2c2nc(C)cc(C(F)(F)F)c2C#N)c1 : 17.4

viability, T/C reported for this molecule CC1COCCN1c1cc(C2(O)CC3CCC(C2)O3)c2cnn(-c3ccn[nH]3)c2n1 (stereo unspecified) + Nc1ccc(C#CCN(C(=O)Cc2ncc(C(F)(F)F)cc2C(F)(F)F)c2ccc(F)cc2)nn1 : 59.3

viability, T/C reported for this molecule CCc1c2c(nc3ccc(O)cc13)-c1cc3c(c(=O)n1C2)COC(=O)[C@]3(O)CC + Nc1ccc(C#CCN(C(=O)Cc2ncc(C(F)(F)F)cc2C(F)(F)F)c2ccc(F)cc2)nn1 : 27.7

viability, T/C reported for this molecule C#Cc1c(F)ccc2cc(O)cc(-c3ncc4c(N5CC6CCC(C5)N6)nc(OCC56CCCN5CC(F)C6)nc4c3F)c12 (stereo unspecified) + COC1C(OC(N)=O)C(O)C(Oc2ccc3c(O)c(NC(=O)c4ccc(O)c(CC=C(C)C)c4)c(=O)oc3c2C)OC1(C)C : 81.7

viability, T/C reported for this molecule COc1ccc([C@@H](O)c2cc(-c3ncnc4cc(N5CCOCC5)ccc34)c(F)cc2Cl)nn1 + Nc1ccc(C#CCN(C(=O)Cc2ncc(C(F)(F)F)cc2C(F)(F)F)c2ccc(F)cc2)nn1 : 92.5

viability, T/C reported for this molecule Nc1ccn(C2OC(CO)C(O)C2(F)F)c(=O)n1 (stereo unspecified) + Nc1ccc(C#CCN(C(=O)Cc2ncc(C(F)(F)F)cc2C(F)(F)F)c2ccc(F)cc2)nn1 : 20.4

viability, T/C reported for this molecule CC(C)n1c(=O)n(C)c2cnc3cc(F)c(-c4ccc(OCCCN5CCCCC5)nc4)cc3c21 + Cc1cccc(N(C)C(=O)C2C(O)CCN2c2nc(C)cc(C(F)(F)F)c2C#N)c1 : 90.8
